- Assay: Single dose pharmacokinetics (PK) study in male Wister-Han rats
- Assay type: in vivo
- Experimental Setup: male, Wister-Han, plasma; rat, IV 2 mg/kg; read-out: IV AUC0-last
Each entry below carries its reported AUC(0-t).
Endpoint Label: AUC(0-t) (ng·h/mL)

>>> print(df.to_string())
                               input_smiles  endpoint_label  measured_number
0  Cc1cc(N2CC[C@@H](c3ncc(N4CCOC[C@@H](N)C4)cc3C)[C@H](C)C2)c2cnn(C)c2n1        AUC(0-t)              974
1  Cc1cc(N2CC[C@H](c3ccc(N4CCOC[C@@H](N)C4)cn3)[C@@H](C)C2)c2cnn(C)c2n1        AUC(0-t)             1060
2  CO[C@@H]1CN(c2cnc([C@@H]3CCN(c4cc(C)nc5c4cnn5C)C[C@H]3C)c(C)c2)C[C@H]1N        AUC(0-t)             2200
3  Cc1cc(N2CCC(c3ncc(N4CCNCC4)cc3C)CC2)c2cnn(C)c2n1        AUC(0-t)             1520
